Test system: T13127
Assay: EC50 against viral strain T13127
Format: cell-based, HIV
Settings: Human immunodeficiency virus 1
READOUT_LABEL: EC50

Query: Record lookup: for T13127, what EC50 belongs to CC(C)(C)NC(=O)[C@@H]1C[C@@H]2CCCC[C@@H]2CN1C[C@@H](O)[C@H](Cc1ccccc1)NC(=O)[C@H](CC(N)=O)NC(=O)c1ccc2ccccc2n1 ?
Result: ~710 nM

====

System: various HIV-1 strains (resistant strains)
Format: cell-based
Conditions: strains with EC50 500 nM-50 nM (sub-therapeutic concentrations); protein not given, AAG; median of at least two determinations
READOUT_LABEL: EC50 ratio (human plasma or serum protein vs 10% FCS), concentration range 500 nM-50 nM
// return a plain number; no unit text

1) CC(C)CN(C[C@@H](O)[C@H](Cc1ccccc1)NC(=O)O[C@H]1CCOC1)S(=O)(=O)c1ccc(N)cc1 :: 14
2) CC(C)(C)NC(=O)[C@@H]1C[C@@H]2CCCC[C@@H]2CN1C[C@@H](O)[C@H](Cc1ccccc1)NC(=O)[C@H](CC(N)=O)NC(=O)c1ccc2ccccc2n1 :: 4

Query: Record lookup: for various HIV-1 strains (resistant strains), what EC50 ratio (human plasma or serum protein vs 10% FCS), concentration range 500 nM-50 nM belongs to Cc1cccc(C)c1OCC(=O)N[C@@H](Cc1ccccc1)[C@@H](O)C[C@H](Cc1ccccc1)NC(=O)[C@H](C(C)C)N1CCCNC1=O ?
Result: 20

Query: Record lookup: for various HIV-1 strains (resistant strains), what EC50 ratio (human plasma or serum protein vs 10% FCS), concentration range 500 nM-50 nM belongs to Cc1c(O)cccc1C(=O)N[C@@H](CSc1ccccc1)[C@H](O)CN1C[C@H]2CCCC[C@H]2C[C@H]1C(=O)NC(C)(C)C ?
Result: 9

Query: Record lookup: for various HIV-1 strains (resistant strains), what EC50 ratio (human plasma or serum protein vs 10% FCS), concentration range 500 nM-50 nM belongs to CC(C)CN(C[C@@H](O)[C@H](Cc1ccccc1)NC(=O)OC1CO[C@H]2OCC[C@@H]12)S(=O)(=O)c1ccc(N)cc1 (some centres unmarked) ?
Result: 12
